Test system: ORYSAT (Rice, Tebonnet)
Experiment: Preemergence herbicidal evaluation
Type: in vivo, Oryza sativa, (L.) Tebonnet
Details: preemergence, 0.2500 kg/ha, rated 4-5 weeks after treatment, 0-9 scale
Assignment: determine reported ORYSAT rating for the given molecules.
Lab note: record just the number, no unit beside it.

Using the record for C=CCN1C(=O)C(CC(=O)NC)SC1=Nc1cc(-n2c(=O)cc(C(F)(F)F)n(C)c2=O)c(F)cc1Cl (centres unmarked) [Compound 84] , report its ORYSAT rating.
3.0

Same question, CN1C(=O)C(CC(=O)NS(=O)(=O)c2ccccc2)SC1=Nc1cc(-n2c(=O)cc(C(F)(F)F)n(C)c2=O)c(F)cc1Cl (centres unmarked) [Compound 102] this time
0.0

Now this one: CCOC(=O)CN1C(=O)C(CC(=O)NO)S/C1=N/c1cc(-n2c(=O)cc(C(F)(F)F)n(C)c2=O)c(F)cc1Cl (centres unmarked) [Compound 98]
1.0

// next record CN1C(=O)C(CC(=O)OCCF)SC1=Nc1cc(-n2c(=O)cc(C(F)(F)F)n(C)c2=O)c(F)cc1Cl (centres unmarked) [Compound 93]
4.0

Thanks! And C=CCN1C(=O)C(CC(=O)NS(C)(=O)=O)SC1=Nc1cc(-n2c(=O)cc(C(F)(F)F)n(C)c2=O)c(F)cc1Cl (centres unmarked) [Compound 96] ?
1.0
